meta.source: patent US20250270202A1

// reported IC50 per item
# System: MV-4-11 cells
# Protocol Description: Inhibition of MV-4-11 cell proliferation (MTS, 7 days)
# Format: cell-based
# Particulars: Homo sapiens, MV4-11, 168 h, 7 days, MTS, Table 3, read-out: MV-4-11 Cells Inhibition Activity IC50

Request body: readout IC50, system MV-4-11 cells, query O=C1CCC(N2C(=O)c3cccc(NCc4cnc(-c5ccc(Cl)c(Cl)c5)o4)c3C2=O)C(=O)N1 (stereo not shown) [Example 73] . Return the value.
< 1000 nM

Request body: readout IC50, system MV-4-11 cells, query O=C1CCC(N2C(=O)c3cccc(NCc4cnc(C5CCN(C(=O)CC67CC8CC(CC(C8)C6)C7)CC5)o4)c3C2=O)C(=O)N1 (stereo not shown) [Example 11] . Return the value.
< 1000 nM

Request body: readout IC50, system MV-4-11 cells, query O=C1CCC(N2C(=O)c3cccc(NCc4cnc(C5CCN(Cc6ccc(OC(F)(F)F)cc6)CC5)o4)c3C2=O)C(=O)N1 (stereo not shown) [Example 14] . Return the value.
< 1000 nM

Request body: readout IC50, system MV-4-11 cells, query Nc1cccc2c1C(=O)N(C1CCC(=O)NC1=O)C2=O (stereo not shown) [Pomalidomide, reference compound] . Return the value.
> 20000 nM
